Experimental Target: Aβ1–42 fibrils (Homo sapiens, UniProt P05067)
Construct: Commercially available amyloid peptide Aβ1-42; purchased
Sequence (P05067 672-713 limits assumed): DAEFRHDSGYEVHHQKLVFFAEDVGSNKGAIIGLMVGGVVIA
Experimental Details: Fluorescence binding assay of 5 with preformed Aβ1–42 fibrils
Experimental Setup: preformed Aβ1–42 aggregates in PBS, single site binding model
pKd: −log10 of the molar value.
Endpoint Name: pKd

[[record]]
structure_notation = "CN(C)c1ncc(/C=C\\c2nc3cc(OCCF)ccc3[se]2)cn1"
experimental_target = "Aβ1–42 fibrils (Homo sapiens, UniProt P05067)"
reported_value = 8.80


====

Experimental Target: AD homogenates (Homo sapiens, UniProt P05067)
Experimental Details: Saturation binding of [18F]-9 with AD homogenates
Experimental Setup: 30 mM Tris pH 7.4, 0.1% BSA, one-site model
Endpoint Name: Kd (nM)

[[record]]
molecule = "CN(C)c1ncc(/C=C\\c2nc3cc(OCC[18F])ccc3[se]2)cn1 [[^18F]-9]"
experimental_target = "AD homogenates (Homo sapiens, UniProt P05067)"
reported_value = 1.7

